- Target desc: HIV WT-C pol protein (wild-type clade C) (Human immunodeficiency virus, UniProt P12497)
- Assay summary: Drug Susceptibility Assay
Measurement kind: log10 EC50 (log10 of the value in nM)
Annotation: log10 of EC50, nM basis.

Past entries and their recorded results:
[
  {
    "Compound": "CC[C@H](C)[C@H](NC(C)=O)C(=O)N[C@@H](Cc1ccccc1)[C@H](O)CN(CC(C)C)S(=O)(=O)c1ccc(OC)cc1",
    "Target desc": "HIV WT-C pol protein (wild-type clade C) (Human immunodeficiency virus, UniProt P12497)",
    "Measurement kind": "log10 EC50",
    "Obs value": 0.48
  },
  {
    "Compound": "COc1ccc(S(=O)(=O)N(CC2CCCCC2)C[C@@H](O)[C@H](Cc2ccccc2)NC(=O)c2cccc(O)c2)cc1",
    "Target desc": "HIV WT-C pol protein (wild-type clade C) (Human immunodeficiency virus, UniProt P12497)",
    "Measurement kind": "log10 EC50",
    "Obs value": 1.82
  },
  {
    "Compound": "CC(C)CN(C[C@@H](O)[C@H](Cc1ccccc1)NC(=O)O[C@H]1CCOC1)S(=O)(=O)c1ccc(N)cc1 [VX-478]",
    "Target desc": "HIV WT-C pol protein (wild-type clade C) (Human immunodeficiency virus, UniProt P12497)",
    "Measurement kind": "log10 EC50",
    "Obs value": 0.57
  },
  {
    "Compound": "O=C(N[C@@H](Cc1ccccc1)[C@H](O)CN(CC1CCCCC1)S(=O)(=O)c1ccc2ncsc2c1)c1cccc(O)c1",
    "Target desc": "HIV WT-C pol protein (wild-type clade C) (Human immunodeficiency virus, UniProt P12497)",
    "Measurement kind": "log10 EC50",
    "Obs value": 1.98
  }
]

Below: the item to evaluate.
stdin: Which log10 EC50 is listed for CC[C@H](C)CN(C[C@@H](O)[C@H](Cc1ccccc1)NC(=O)C(NC(C)=O)[C@@H](C)CC)S(=O)(=O)c1ccc2ncsc2c1 (stereo not given in full) ?
stdout: 0.54

* * *

- Target desc: HIV-1 protease (Human immunodeficiency virus)
- Sequence (O90785 whole entry): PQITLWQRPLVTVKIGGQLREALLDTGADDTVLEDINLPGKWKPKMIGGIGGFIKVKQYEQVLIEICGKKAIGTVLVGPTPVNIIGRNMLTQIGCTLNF
Measurement kind: Ki
Answer format: value, then unit.

Past entries and their recorded results:
[
  {
    "Compound": "O=C(N[C@@H](Cc1ccccc1)[C@H](O)CN(CCCc1ccccc1)S(=O)(=O)c1ccc2ncsc2c1)c1cccc(O)c1",
    "Target desc": "HIV-1 protease (Human immunodeficiency virus)",
    "Ki": "0.07 nM"
  },
  {
    "Compound": "CC[C@H](C)[C@H](NC(C)=O)C(=O)N[C@@H](Cc1ccccc1)[C@H](O)CN(CC(C)C)S(=O)(=O)c1ccc(OC)cc1",
    "Target desc": "HIV-1 protease (Human immunodeficiency virus)",
    "Ki": "0.146 nM"
  }
]

Below: the item to evaluate.
stdin: Which Ki is listed for CC[C@H](C)CN(C[C@@H](O)[C@H](Cc1ccccc1)NC(=O)C(NC(C)=O)[C@@H](C)CC)S(=O)(=O)c1ccc2ncsc2c1 (stereo partly drawn) ?
stdout: 0.021 nM

* * *

- Target desc: Gag-Pol polyprotein [489-892,N526H,R530K,V566I,I582L,V648I,Q690K,I723V,C750S,T788A,Q795E,T874A,V881I,P882Q] (Human immunodeficiency virus, UniProt P12497, C750S/I582L/I723V/N526H/P882Q/Q690K/Q795E/R530K/T788A/T874A/V566I/V648I/V881I)
- Construct: 489-892
- Assay summary: Drug Susceptibility Assay
Measurement kind: pEC50
Lab note — pEC50 values are minus log10 of concentrations in M.

Past entries and their recorded results:
[
  {
    "Molecule": "CC[C@H](C)CN(C[C@@H](O)[C@H](Cc1ccccc1)NC(=O)C(NC(C)=O)[C@@H](C)CC)S(=O)(=O)c1ccc2ncsc2c1 (stereo not given in full)",
    "pEC50": 8.72
  },
  {
    "Molecule": "CC(C)CN(C[C@@H](O)[C@H](Cc1ccccc1)NC(=O)O[C@H]1CCOC1)S(=O)(=O)c1ccc(N)cc1",
    "pEC50": 8.74
  },
  {
    "Molecule": "O=C(N[C@@H](Cc1ccccc1)[C@H](O)CN(CC1CCCCC1)S(=O)(=O)c1ccc2ncsc2c1)c1cccc(O)c1",
    "pEC50": 7.42
  },
  {
    "Molecule": "CC[C@H](C)[C@H](NC(C)=O)C(=O)N[C@@H](Cc1ccccc1)[C@H](O)CN(CC(C)C)S(=O)(=O)c1ccc(OC)cc1",
    "pEC50": 8.80
  }
]

Below: the item to evaluate.
stdin: Which pEC50 is listed for "COc1ccc(S(=O)(=O)N(CC2CCCCC2)C[C@@H](O)[C@H](Cc2ccccc2)NC(=O)c2cccc(O)c2)cc1" ?
stdout: 7.65
